Below are pIC50 measurements against Cytochrome P450 2C9 (Homo sapiens) drawn from the literature.
pIC50: −log10 of the molar value.

GET /values?readout=pIC50&system=Cytochrome P450 2C9 (Homo sapiens)&item= `O=C(c1ccc(NC2CCC(F)(F)CC2)nc1F)c1c[nH]c2ncnc(NC3CC3)c12`
< 5.00

New cases:
GET /values?readout=pIC50&system=Cytochrome P450 2C9 (Homo sapiens)&item= `CO[C@H]1CN(C(=O)c2cncn2[C@@H](C)c2ccccc2-c2ccc(F)cc2)CC[C@@H]1N1CCOC1=O`
< 5.00

GET /values?readout=pIC50&system=Cytochrome P450 2C9 (Homo sapiens)&item= `CO[C@H]1[C@@H](C)SC(N)=N[C@]1(C)c1cc(NC(=O)c2cnc(OCF)cn2)ccc1F`
≤ 4.70

GET /values?readout=pIC50&system=Cytochrome P450 2C9 (Homo sapiens)&item= COCC1CC(c2cc(OC3CC3)c(Nc3ncc(Cl)c(Nc4cn(C)nc4S(=O)(=O)C(C)C)n3)cc2C)CCN1C (stereo not shown)
< 5.00

###

Below are IC50 measurements against Cytochrome P450 2C9 (Homo sapiens) drawn from the literature.
measured_metric: IC50 (µM)

Field: example entries. Status: answers known.
// returns reported IC50 for input `CNC(=O)c1cc(Cc2nnc(Nc3ccc(Cl)cc3)c3ccccc23)ccn1`
5.7

// returns reported IC50 for input `C[C@H](F)COc1ccc(C(=O)N2CCC(F)(F)/C(=C\C(=O)NCCO)c3cc(F)ccc32)c(C(F)(F)F)c1`
43

// returns reported IC50 for input `C[C@H]1CN(C(=O)c2cc(Br)c(O)c(Br)c2)c2c(cnn2C)O1`
18.9

// returns reported IC50 for input `COc1ccc2c(c1OCc1ccccc1)C[C@@H](C(=O)O)N(C(=O)[C@@H](OC1CC(F)(F)C1)c1ccccc1)C2`
34.4

a = CC[C@@H](C#N)NC(=O)c1ccc(-c2nc(Nc3cnn(CCO)c3)ncc2Cl)cc1
b = CC(C)C(O)(c1ccncn1)c1ccc2cc(OC(F)F)ccc2n1 (centres unmarked)
Param metric = IC50; output whichever of a , b has the minimum value. Which one? Tell me its label.
b

###

Below are IC50 measurements against Cytochrome P450 2C9 (Homo sapiens) drawn from the literature.

// returns reported IC50 for input `[2H]C1([2H])Oc2cc(C)c(CC(=O)c3sccc3S(=O)(=O)Nc3onc(C)c3Cl)cc2O1`
0.32 µM

// returns reported IC50 for input `CCc1ccc(Nc2ccc(C(=O)c3c[nH]c4ncnc(N[C@@H](C)c5ccc(F)cc5)c34)c(F)n2)cn1`
< 5 µM

// returns reported IC50 for input `C[C@H]1SC(N)=N[C@](C)(c2cccc(NC(=O)c3cnc(OCF)cn3)c2)[C@H]1F`
≥ 10 µM

###

pIC50: −log10 of the molar value.
Below are pIC50 measurements against Cytochrome P450 2C9 (Homo sapiens, UniProt P11712) drawn from the literature.

// returns reported pIC50 for input `C[C@H](c1ccc(F)cc1)n1cncc1CN1CCN(S(=O)(=O)c2cnc(N3CC(=O)N4C[C@H](O)C[C@H]4C3)s2)CC1`
5.04

New cases:
// returns reported pIC50 for input `COc1c(Cl)cc(C(=O)N2CCOc3ccccc32)cc1Cl`
< 4.30

// returns reported pIC50 for input `O=C(O)c1ccccc1C(=O)N1CCOc2ccccc21`
< 4.30

// returns reported pIC50 for input `Cc1cnc(Nc2cnn(CCO)c2)nc1-c1ccc(C(=O)N[C@@H](C)C#N)cc1`
< 4.30

// returns reported pIC50 for input `COc1cc2c(NC3CCS(=O)(=O)CC3)nc(N3CCN(C)CC3)nc2cc1OCCCN1CCCC1`
< 4.00

// returns reported pIC50 for input Cc1cc(Nc2ncc(Cl)c(Nc3cn(C)nc3S(=O)(=O)C(C)C)n2)c(OC2CC2)cc1C1CCC(NS(C)(=O)=O)CC1 (stereo not shown)
< 5.00

// returns reported pIC50 for input `CCCCOCCOc1ccc(-c2ccc3c(c2)/C=C(/C(=O)Nc2ccc([S@+]([O-])Cc4c(C)ncn4CC)cc2)CCCN3CC2CCOCC2)cc1`
< 4.30

// returns reported pIC50 for input `Cc1cccc2c1N(C(=O)c1cc(Cl)c(O)c(Cl)c1)CCO2`
4.80

// returns reported pIC50 for input `CCOc1ccc(Nc2ccc(Cc3c[nH]c4ncnc(C)c34)c(F)n2)cn1`
< 5.00

// returns reported pIC50 for input `COc1cncc(Nc2ccc(C(=O)c3c[nH]c4ncnc(NCC(F)(F)F)c34)c(F)n2)c1`
< 5.00

// returns reported pIC50 for input `CCOc1cc2c(cc1OC)-c1c/c(=N\c3c(C)cc(C)cc3C)n(CCNC(=O)c3c(O)nnn3C)c(=O)n1CC2`
4.51

// returns reported pIC50 for input `COC(=O)c1ccc2c(c1)N(C(=O)c1cc(Cl)c(O)c(Cl)c1)CCO2`
4.72

// returns reported pIC50 for input `O=C(c1cc(Br)c(O)c(Br)c1)N1CCOc2ccccc21`
5.05

// returns reported pIC50 for input `Clc1cnc2[nH]cc(Cc3cnc(NC4CCCCCC4)nc3)c2c1`
< 5.00

// returns reported pIC50 for input `CN1C(=O)N(c2cccc(C(F)(F)F)c2)C2=C(C(=O)CC2)[C@H]1c1ccc(C#N)cc1-c1ccc(=O)n(C)c1`
< 4.30

// returns reported pIC50 for input CC(C)C(c1ccc2cc(OC(F)F)c(OC(F)F)cc2c1)n1ncnn1 (stereo not shown)
5.15
